Ref: PubChem BioAssay AID651640

RUN DESCRIPTION: inhibitors of DENV2 cytopathic effect, primary screen, cell-based, plate reader, single concentration (AID 651640);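 further: 0% = median of neutral control wells and 100% = median of positive control wells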
CONDITION: DENV2-infected cells, cytopathic effect rescue, at 9.99 µM
Among all 350,000 compounds or so, about 6,000 (1.7%) were called active. About 5% were inconclusive and are not listed. No stated cut-off is given here; in the data, active means CPE inhibition above about 20% (passing the limit was not always enough); inconclusive means no clear call, values can overlap the other calls; tested in BHK-21 cells. For the sample, actives were picked, then their nearest neighbours and some compounds at random.
I would appreciate it if you answered using one of these outcomes: active, inactive

Past entries and their recorded results:
> print(dat)
                                   compound  qualitative.label
1  C[C@@H]1CN([C@@H](C)CO)C(=O)c2cc(C3=CCCC3)cnc2O[C@@H]1CN(C)C(=O)Cc1ccncc1           inactive
2  CCNC(=O)Nc1ccc2c(c1)C(=O)N(C)[C@@H]1CC[C@@H](CC(=O)NCCOC)O[C@@H]1CO2           inactive
3  C[C@H](CO)N1C[C@H](C)[C@@H](CN(C)S(=O)(=O)c2cn(C)cn2)OCCCC[C@H](C)Oc2ccc(NC(=O)Cc3ccccc3)cc2C1=O             active
4  COc1ccc(OC)c(/C(C)=N\NC(=O)c2cc3cc(Cl)ccc3n2C)c1             active
5  C/C=C/c1ccc2c(c1)O[C@@H](CN(C)C(=O)Cc1ccccn1)[C@@H](C)CN([C@H](C)CO)S2(=O)=O           inactive
6  C/C=C/c1ccc2c(c1)O[C@H](CN(C)C(C)=O)[C@H](C)CN([C@H](C)CO)S2(=O)=O           inactive
7  CO[C@@H]1CN(C)C(=O)c2cc(NC(=O)c3ccc4c(c3)OCO4)ccc2OC[C@H](C)N(CCC(F)(F)F)C[C@H]1C           inactive
8            O=C(NNC(=O)c1ccccc1O)c1ccccc1O             active

How was `Cc1cc(C(=O)CCC(=O)NNC(=O)c2ccccc2O)c(C)s1` classified in this test?
inactive

###

RUN DESCRIPTION: inhibitors of DENV2 cytopathic effect, primary screen, cell-based, plate reader, single concentration (AID 651640);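 further: 0% = median of neutral control wells and 100% = median of positive control wells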
CONDITION: DENV2-infected cells, cytopathic effect rescue, at 9.99 µM
About 6,000 (1.7%) of roughly 350,000 compounds were called active. Inconclusive results (about 5%) are left out. No stated cut-off is given here; in the data, active means CPE inhibition above about 20% (passing the limit was not always enough); inconclusive means no clear call, values can overlap the other calls; tested in BHK-21 cells. For the sample, actives were picked, then their nearest neighbours and some compounds at random.
I would appreciate it if you answered using one of these outcomes: active, inactive

How was `CN1[C@@H]2c3ccc(-c4cccc(F)c4)c(=O)n3C[C@@H]2[C@@H](CO)[C@@H]1C(=O)NC1CCC1` classified in this test?
inactive

###

RUN DESCRIPTION: inhibitors of DENV2 cytopathic effect, primary screen, cell-based, plate reader, single concentration (AID 651640);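 further: 0% = median of neutral control wells and 100% = median of positive control wells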
CONDITION: DENV2-infected cells, cytopathic effect rescue, at 9.99 µM, hits give high values
Out of some 350,000 compounds screened, about 6,000 (1.7%) were called active. Inconclusive results (about 5%) are left out. Only a selection was taken, and actives are over-represented in it overall.
TEST READOUT: CPE inhibition (%)
# unit: % | format: bare number

> print(dat)
                              record.smiles    test.readout  unit.spec    val
1  CC(=O)N1C[C@@H]2[C@H](c3ccccc31)[C@H](CO)N2C(=O)Nc1ccc(F)cc1  CPE inhibition          %  -5.97

Reported CPE inhibition, compound `COCC(=O)N1CCC2(CC1)CN(C(=O)Nc1ccccc1F)[C@@H](CO)c1c2c2ccc(OC)cc2n1C` : ____
-0.316

Reported CPE inhibition, compound `C[C@@H]1CN([C@H](C)CO)C(=O)c2cc(NC(=O)Nc3ccc4c(c3)OCO4)ccc2O[C@@H](C)CCCCO[C@@H]1CN(C)Cc1ccc2c(c1)OCO2` : ____
-24.7

Reported CPE inhibition, compound `C/C=C/c1cnc2c(c1)C(=O)N([C@H](C)CO)C[C@H](C)[C@@H](CN(C)C(=O)Nc1ccc(C(F)(F)F)cc1)O2` : ____
-8.88

Reported CPE inhibition, compound `C[C@H]1CCCCO[C@@H](CN(C)Cc2ccc3c(c2)OCO3)[C@@H](C)CN([C@@H](C)CO)C(=O)c2cc(NC(=O)Nc3ccc(F)cc3)ccc2O1` : ____
23

Reported CPE inhibition, compound `C[C@H](O)C#Cc1cnc2c(c1)C(=O)N([C@H](C)CO)C[C@@H](C)[C@@H](CN(C)C(=O)Nc1ccc(C(F)(F)F)cc1)O2` : ____
-2.9

Reported CPE inhibition, compound `C[C@@H]1CN([C@@H](C)CO)C(=O)c2cc(N(C)C)ccc2O[C@H]1CN(C)Cc1ccc(C(F)(F)F)cc1` : ____
2.48
